target: hGLP-1R (Homo sapiens, UniProt P43220); test: cell-based or functional assay
Sequence (P43220 24-463): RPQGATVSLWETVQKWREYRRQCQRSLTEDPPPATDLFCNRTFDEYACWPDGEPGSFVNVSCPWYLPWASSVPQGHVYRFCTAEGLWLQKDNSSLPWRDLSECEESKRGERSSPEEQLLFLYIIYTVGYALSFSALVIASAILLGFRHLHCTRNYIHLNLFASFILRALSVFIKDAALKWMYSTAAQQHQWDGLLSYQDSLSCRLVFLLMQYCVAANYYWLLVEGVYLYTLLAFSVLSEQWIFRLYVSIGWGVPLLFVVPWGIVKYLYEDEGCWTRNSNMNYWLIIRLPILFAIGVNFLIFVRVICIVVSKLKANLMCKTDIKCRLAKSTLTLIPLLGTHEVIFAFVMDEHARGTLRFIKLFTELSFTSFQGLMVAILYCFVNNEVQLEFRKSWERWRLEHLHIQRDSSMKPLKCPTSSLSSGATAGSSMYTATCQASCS
The entries below come with measured cAMP Rel EC50, nM (1% HSA) values attached.

// worked examples, cAMP Rel EC50, nM (1% HSA) included
Binder	cAMP Rel EC50, nM (1% HSA)
YXQGTFTSDXSRXLDKKAQXAFIEYLIEXGESSGAPPPSGS (synthetic construct; SITE 2: note = 2-Aminoisobutyric Acid; SITE 10: note = 3-(4-Pyridyl)-L-alanine; SITE 13: note = alpha-methyl-leucine; SITE 17: note = Lysine is chemically modified through conjugation of the epsilon-amino group of the Lysine side chain with (2-[2-(2-Amino-ethoxy)-ethoxy]-acetyl)) [Example 187]	178 nM
YXQGTFTSDFSXXLDKKAQXAFIEYLLEXGPSSXAPPPSGS (acylated; synthetic construct; SITE 2: note = 2-Aminoisobutyric Acid; SITE 12: note = L-ornithine; SITE 13: note = alpha-methyl-leucine; SITE 17: note = Lysine is chemically modified through conjugation of the epsilon-amino group of the Lysine side chain with (2-[2-(2-Amino-ethoxy)-ethoxy]-acetyl)-(gamma-Glu)) [Example 238]	262 nM
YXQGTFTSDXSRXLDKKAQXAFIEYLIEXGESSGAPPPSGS (acylated; synthetic construct; SITE 2: note = 2-Aminoisobutyric Acid; SITE 10: note = 3-(4-Pyridyl)-L-alanine; SITE 13: note = alpha-methyl-leucine; SITE 17: note = Lysine is chemically modified through conjugation of the epsilon-amino group of the Lysine side chain with (2-[2-(2-Amino-ethoxy)-ethoxy]-acetyl)) [Example 224]	333 nM
YXQGTFTSDXSQXLDXKAQXAFIEXLIEGGPSSGAPPPSGSEE (non-natural residues, (γGlu)2-C18 diacid lysine acylation, C-terminal amide; synthetic construct; SITE 2: note = 2-Aminoisobutyric Acid; SITE 10: note = 3-(4-Pyridyl)-L-alanine; SITE 13: note = alpha-methyl-leucine; SITE 16: note = L-ornithine; SITE 17: note = Lysine is chemically modified through conjugation of the epsilon-amino group of the Lysine side chain with (gamma-Gl)) [Example 1044]	1110 nM
YXQGTFTSDFSXXLDKKAQXAFIEYLLEGGPSSGAPPPGGQ (synthetic construct; SITE 2: note = 2-Aminoisobutyric Acid; SITE 12: note = L-ornithine; SITE 13: note = alpha-methyl-leucine; SITE 17: note = Lysine is chemically modified through conjugation of the epsilon-amino group of the Lysine side chain with (2-[2-(2-Amino-ethoxy)-ethoxy]-acetyl)-(gamma-Glu)) [Example 159]	588 nM
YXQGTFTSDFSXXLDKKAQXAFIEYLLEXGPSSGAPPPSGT (acylated lipid side chain; synthetic construct; SITE 2: note = 2-Aminoisobutyric Acid; SITE 12: note = L-ornithine; SITE 13: note = alpha-methyl-leucine; SITE 17: note = Lysine is chemically modified through conjugation of the epsilon-amino group of the Lysine side chain with (2-[2-(2-Amino-ethoxy)-ethoxy]-acetyl)-(gamma-Glu)) [Example 200]	395 nM
YXQGTFTSDXSXXLDKKAQXAFIEYLIEXGESSGAPPPSGS (acylated; synthetic construct; SITE 2: note = 2-Aminoisobutyric Acid; SITE 10: note = 3-(4-Pyridyl)-L-alanine; SITE 12: note = L-ornithine; SITE 13: note = alpha-methyl-leucine; SITE 17: note = Lysine is chemically modified through conjugation of the epsilon-amino group of the Lysine side chain with (2-[2-(2-) [Example 223]	627 nM

Okay, next one:
Measured cAMP Rel EC50, nM (1% HSA), YXQGTFTSDXSXXLDKKAQXAFIEYLLAGGPSSGEPPPSGS (synthetic construct; SITE 2: note = 2-Aminoisobutyric Acid; SITE 10: note = 3-(4-Pyridyl)-L-alanine; SITE 12: note = L-ornithine; SITE 13: note = alpha-methyl-leucine; SITE 17: note = Lysine is chemically modified through conjugation of the epsilon-amino group of the Lysine side chain with (2-[2-(2-) [Example 154] : 569 nM
